- Tested on: CCRF-CEM leukemia
- assayMethodText: NCI-60 one-dose screen, 48 h
- conditionDetails: 10 µM
This is part of a sample that, as a whole, favours compounds with a hit. Of some 83,000 tested, about 20% had one in any assay. Active and inactive are the calls of the source. The calls were made as follows: active = growth percent below 10; inactive = the rest.
One label from this list, please: True for active, False for inactive

{"columns": ["compound", "labelClass"],
 "data": [
  ["C#Cc1cccc(NC(=O)c2ccc(Cl)cc2Cl)c1", "False"]
]}

Exam item: Each compound tested received a call. Report the one for CC(=O)c1ccc(C)c(N)c1 .
Marked response: False

Exam item: Can you look up the reported call for OC(c1ccccn1)C(O)c1ccccn1 (stereo not drawn) for me?
Marked response: False

Exam item: Write down the call the test reported for this compound. Item: CCOc1ccc(Br)cc1/C=N\N=C\c1cc(Br)ccc1OCC
Marked response: True

Exam item: In this assay, the call recorded for CC(=O)c1cc2c(cc1F)C(C)(C)CCC2(C)C was what?
Marked response: False

Exam item: Write down the call the test reported for this compound. Item: CN1C(=O)CN2CCc3ccccc3C2c2cc(Cl)ccc21 (stereo not drawn)
Marked response: False

Exam item: Lab log entry: O=C(Nc1cccc(NC(=O)Nc2cc(C(F)(F)F)ccc2Cl)c1)Nc1cc(C(F)(F)F)ccc1Cl — outcome as called in the assay?
Marked response: True

Exam item: # fetch the recorded call for CCOC(=O)c1cc(/C=C/c2ccc(Cl)cc2Cl)on1 here
Marked response: False

* * *

- Tested on: HCT-15 colon
- assayMethodText: NCI-60 one-dose screen, 48 h (100 = growth as untreated, 0 = no growth, -100 = all killed)
- conditionDetails: 10 µM
Compounds without any hit were thinned out: in the full panel of roughly 83,000, 20% have a hit.
propertyName: growth (%)
Lab book: enter the figure in %, no units written.

{"columns": ["smilesText", "reportedValue"],
 "data": [
  ["CCCNc1ccc(C2=NCCCN2)cc1", 97.8],
  ["O=C(N/N=C\\c1cc(Br)cc(Br)c1O)N/N=C/c1cc(Br)cc(Br)c1O", 33.6]
]}

Note: attention shifts to another entry.
response.value for CC1=C(/C=C/C(C)=C/C=C/C(C)=C/CO)C(C)(C)CCC1 (field: growth) = 112

* * *

- Test system: U251 CNS
- assayMethodText: NCI-60 one-dose screen, 48 h (100 = growth as untreated, 0 = no growth, -100 = all killed)
- conditionDetails: 10 µM
This is part of a sample that, as a whole, favours compounds with a hit. Of some 83,000 tested, about 20% had one in any assay.
Listing of recorded growth by entry.
Just the number please, in %, no unit attached.

// known answers, use as guide
{"columns": ["compound", "reportedValue"],
 "data": [
  ["OCc1cccc2ccccc12", 108],
  ["CCO/C=C1\\SC(=S)N(c2cccc(C)c2)C1=O", 98.6]
]}

Looking up O=[N+]([O-])c1ccc(/C=C/C=C/c2ccccc2)c(Cl)c1 , I see its growth listed as 92

Just so you know, measured growth for O=C(O)c1ccc(S(=O)(=O)O)cc1 came out at 103

Record Cc1ccc(N)cc1[N+](=O)[O-] , field growth: 98.8

Per the records, this compound ( CCOc1ccc(Br)cc1/C=N\N=C\c1cc(Br)ccc1OCC ) has growth equal to 103

# growth of CN(C)c1ccc(CNC(C(=O)c2ccccc2)c2ccccc2)cc1 (configuration not stated) = 94.1
